Biological target: OX2R (Homo sapiens)
Construct: expressed in transfected cells; host or cells: CHO (Chinese hamster ovary) cells constitutively expressing the OX2R gene and NFAT-luciferase (CHOOX2R)
Test: Evaluation of agonist activity against OX2R (CHOOX2R cells, Fura2AM fluorescence, FDSS3000)
Assay type: cell-based
Settings: test compound 1.0 μM; relative to orexin-A as full agonist (100%); CHOOX2R cells
Reported Metric: Response (1.0 μM (%))
Give just the numeric value; % need not be written.

1. COc1cccc(C(=O)NCCNc2cccc(NS(=O)(=O)c3cc(-c4ccccc4O)ccc3OC)c2)c1 [Example 22] = 15
2. COc1ccccc1C(=O)NCCNc1cccc(NS(=O)(=O)c2cc(-c3c(F)cccc3F)ccc2OC)c1 [Example 17] = 18
3. COc1ccccc1C(=O)NCCN(C)c1cccc(NS(=O)(=O)c2cc(-c3cccc(C(=O)N(C)C)c3)ccc2OC)c1 [Example 112] = 131
4. COc1cccc(C(=O)NCCNc2cccc(NS(=O)(=O)c3cc(-c4ccccc4F)ccc3OC)c2)c1 [Example 2] = 27
5. COc1cccc(C(=O)NCCNc2cccc(NS(=O)(=O)c3cc(-c4cc(F)ccc4F)ccc3OC)c2)c1 [Example 20] = 13

Item: COc1cccc(C(=O)NCCNc2cccc(NS(=O)(=O)c3cc(-c4cc(F)ccc4Cl)ccc3OC)c2)c1 [Example 33] Test system: OX2R (Homo sapiens) Read-out: Response (1.0 μM (%)) Value: ?
31

Item: COc1cccc(C(=O)NCCNc2cccc(NS(=O)(=O)c3cc(-c4cccc(OC)c4)ccc3OC)c2)c1 [Example 31] Test system: OX2R (Homo sapiens) Read-out: Response (1.0 μM (%)) Value: ?
67

* * *

Target: OX2R (Homo sapiens, UniProt O43614)
Construct: expressed in transfected cells; host or cells: CHO (Chinese hamster ovary) cells constitutively expressing the OX2R gene and NFAT-luciferase (CHOOX2R)
Sequence (O43614 1-444): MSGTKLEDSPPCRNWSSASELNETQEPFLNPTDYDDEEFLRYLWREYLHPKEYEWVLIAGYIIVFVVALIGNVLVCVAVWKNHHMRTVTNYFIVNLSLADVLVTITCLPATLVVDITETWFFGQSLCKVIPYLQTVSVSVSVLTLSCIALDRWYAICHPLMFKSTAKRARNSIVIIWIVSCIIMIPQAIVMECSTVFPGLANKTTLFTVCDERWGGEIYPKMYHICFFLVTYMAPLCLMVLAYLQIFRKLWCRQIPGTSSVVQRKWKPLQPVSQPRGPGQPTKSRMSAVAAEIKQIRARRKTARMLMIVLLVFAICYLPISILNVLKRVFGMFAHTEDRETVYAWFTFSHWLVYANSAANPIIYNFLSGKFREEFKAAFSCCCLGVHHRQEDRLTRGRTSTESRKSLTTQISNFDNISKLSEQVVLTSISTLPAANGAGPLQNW
Assay: Evaluation of agonist activity against OX2R (CHOOX2R cells, Fura2AM fluorescence, FDSS3000)
Format: cell-based
Settings: test compound 1.0 μM; relative to orexin-A as full agonist (100%); CHOOX2R cells
Reported Metric: Response (1.0 μM (%))
Give just the numeric value; % need not be written.

As a guide, the following entries are already answered.
1. COc1ccc(C(=O)NCCNc2cccc(NS(=O)(=O)c3cc(-c4ccccc4F)ccc3OC)c2)cc1 = 11
2. COc1cccc(C(=O)NCCNc2cccc(NS(=O)(=O)c3cc(-c4cc(Cl)ccc4Cl)ccc3OC)c2)c1 = 5

Quick one: Response (1.0 μM (%)) of COc1cccc(C(=O)NCCNc2cccc(NS(=O)(=O)c3cc(-c4cccc(Cl)c4)ccc3OC)c2)c1 ?
16

* * *

Molecular target: OX2R (Homo sapiens, UniProt O43614)
Construct: expressed in transfected cells; host or cells: CHO (Chinese hamster ovary) cells constitutively expressing the OX2R gene and NFAT-luciferase (CHOOX2R)
Sequence (O43614 1-444): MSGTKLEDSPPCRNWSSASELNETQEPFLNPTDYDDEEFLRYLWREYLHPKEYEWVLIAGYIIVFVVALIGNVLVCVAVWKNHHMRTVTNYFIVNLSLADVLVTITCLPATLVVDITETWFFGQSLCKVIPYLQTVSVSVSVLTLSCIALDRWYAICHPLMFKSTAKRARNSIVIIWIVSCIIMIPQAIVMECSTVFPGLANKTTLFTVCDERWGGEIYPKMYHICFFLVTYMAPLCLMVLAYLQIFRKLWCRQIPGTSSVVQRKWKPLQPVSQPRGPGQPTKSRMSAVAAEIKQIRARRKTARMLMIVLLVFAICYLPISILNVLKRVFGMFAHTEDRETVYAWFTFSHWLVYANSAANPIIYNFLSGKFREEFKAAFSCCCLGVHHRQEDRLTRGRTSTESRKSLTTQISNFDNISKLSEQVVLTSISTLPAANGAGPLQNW
Assay: Evaluation of agonist activity against OX2R (CHOOX2R cells, Fura2AM fluorescence, FDSS3000)
Assay type: cell-based
Settings: test compound 1.0 μM; relative to orexin-A as full agonist (100%); CHOOX2R cells
Reported Metric: Response (1.0 μM (%))
Give just the numeric value; % need not be written.

1. COc1cc(C)c(-c2cccc(C(=O)N(C)C)c2)cc1S(=O)(=O)Nc1cccc(NCCNC(=O)c2cccnc2OC)c1 = 93

Quick one: Response (1.0 μM (%)) of CCOc1ccc(-c2cccc(C(=O)N(C)C)c2)cc1S(=O)(=O)Nc1cccc(NCCNC(=O)c2ccccc2OC)c1 ?
81

Quick one: Response (1.0 μM (%)) of COc1ccccc1C(=O)NCCNc1cccc(NS(=O)(=O)c2cc(-c3ccccc3F)ccc2OC)c1 ?
21

Quick one: Response (1.0 μM (%)) of COc1ccccc1C(=O)NCCNc1cccc(NS(=O)(=O)c2cc(-c3cccc(C(=O)N(C)C)c3)ccc2F)c1 ?
79

* * *

Target: OX2R (Homo sapiens)
Construct: expressed in transfected cells; host or cells: CHO (Chinese hamster ovary) cells constitutively expressing the OX2R gene and NFAT-luciferase (CHOOX2R)
Experiment: Evaluation of agonist activity against OX2R (CHOOX2R cells, Fura2AM fluorescence, FDSS3000)
Assay type: cell-based
Settings: test compound 1.0 μM; relative to orexin-A as full agonist (100%); CHOOX2R cells
Reported Metric: Response (1.0 μM (%))
Give just the numeric value; % need not be written.

As a guide, the following entries are already answered.
1) COc1ccccc1C(=O)NCCNc1cccc(NS(=O)(=O)c2cc(-c3ccccc3OC)ccc2OC)c1 = 44
2) COc1cc(C)c(-c2cccc(C(=O)N(C)C)c2)cc1S(=O)(=O)Nc1cccc(NCCNC(=O)c2sccc2Cl)c1 = 84
3) COc1cccc(C(=O)NCCNc2cccc(NS(=O)(=O)c3cc(-c4cncc(OC)c4)ccc3OC)c2)c1 = 22

Quick one: Response (1.0 μM (%)) of COc1ccccc1C(=O)NCCNc1cccc(NS(=O)(=O)c2cc(-c3cc(Cl)ccc3Cl)ccc2OC)c1 ?
7

Quick one: Response (1.0 μM (%)) of COc1ccccc1C(=O)NCCNc1cccc(NS(=O)(=O)c2cc(-c3cc(F)ccc3Cl)ccc2OC)c1 ?
26

* * *

Biological target: OX2R (Homo sapiens, UniProt O43614)
Construct: expressed in transfected cells; host or cells: CHO (Chinese hamster ovary) cells constitutively expressing the OX2R gene and NFAT-luciferase (CHOOX2R)
Sequence (O43614 1-444): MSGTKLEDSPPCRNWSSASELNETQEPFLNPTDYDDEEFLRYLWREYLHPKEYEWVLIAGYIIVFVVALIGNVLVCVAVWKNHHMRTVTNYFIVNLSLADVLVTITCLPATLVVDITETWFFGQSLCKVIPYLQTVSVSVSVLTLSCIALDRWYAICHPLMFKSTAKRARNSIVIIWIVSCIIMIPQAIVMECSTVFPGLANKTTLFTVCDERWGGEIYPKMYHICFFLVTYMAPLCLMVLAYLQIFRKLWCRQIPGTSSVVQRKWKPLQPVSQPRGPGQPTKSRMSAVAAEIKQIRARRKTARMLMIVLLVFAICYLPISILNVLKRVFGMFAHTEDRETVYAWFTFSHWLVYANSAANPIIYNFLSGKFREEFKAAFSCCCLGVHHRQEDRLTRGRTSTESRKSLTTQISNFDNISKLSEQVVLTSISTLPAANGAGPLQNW
Test: Evaluation of agonist activity against OX2R (CHOOX2R cells, Fura2AM fluorescence, FDSS3000)
Assay type: cell-based
Conditions: test compound 1.0 μM; relative to orexin-A as full agonist (100%); CHOOX2R cells
Recorded Response (1.0 μM (%)) for the following compounds
Give just the numeric value; % need not be written.

1) COc1ccc(-c2ccccc2F)cc1S(=O)(=O)Nc1cccc(NCCNC(=O)c2ccccc2Cl)c1 = 62

Let's switch to this compound now.
Quick one: Response (1.0 μM (%)) of COc1cc(C)c(-c2cccc(C(=O)N(C)C)c2)cc1S(=O)(=O)Nc1cccc(NCCNC(=O)c2cccc(F)c2)c1 ?
83
